The measurements presented in this section are drawn from patent US8178506B2.

- Test system: PPARγ
- assayName: PPARγ mRNA expression in adipocytes (real-time PCR)
- Assay type: cell-based, human
- conditionSet: Table 20; adipocyte differentiation assay as in Example 13
In the oligonucleotide strings, read from the 5' end, every base follows the letter of its sugar. An asterisk marks phosphorothioate; unmarked linkages are phosphodiester. Other units and linkages are bracketed, terminal groups are in braces. A string of capitals states the bases alone. e = 2'-O-(2-methoxyethyl) (MOE); [5mC] = 5-methylcytosine; d = 2'-deoxy (DNA)
valueType: PPAR gamma

Inquiry: Consider the substance 340927 (antisense eT*eG*eA*eG*e[5mC]*dT*dA*d[5mC]*dA*dG*dT*dG*d[5mC]*dT*dT*e[5mC]*eA*eT*e[5mC]*eT*e[5mC]*eA) [compound 340927] and give its measured PPAR gamma.
Reply text: 0.36

Inquiry: // query PPAR gamma value for entry 338664 (antisense e[5mC]*eA*eG*eA*e[5mC]*eT*e[5mC]*e[5mC]*e[5mC]*eA*eA*e[5mC]*eT*eG*eA*e[5mC]*e[5mC]*eA*eG*eA) [compound 338664]
Reply text: 0.86

Inquiry: Given the substance 328382 (e[5mC]*eA*eG*eA*e[5mC]*dT*d[5mC]*d[5mC]*d[5mC]*dA*dA*d[5mC]*dT*dG*dA*e[5mC]*e[5mC]*eA*eG*eA) [compound 328382] , what is its reported PPAR gamma?
Reply text: 0.96

Inquiry: Which PPAR gamma value belongs to 327901 (antisense eT*eG*eA*eG*e[5mC]*eT*eA*e[5mC]*eA*eG*eT*eG*e[5mC]*eT*eT*e[5mC]*eA*eT*e[5mC]*eT*e[5mC]*eA) [compound 327901] ?
Reply text: 0.30
